Measured pIC50 accompanies every entry in the list below.
Target: ovine COX-1 (oCOX-1) (Ovis aries, UniProt P05979)
Construct: purchased Cayman Chemicals (Ann Arbor, Mich.)
Sequence (P05979 25-600): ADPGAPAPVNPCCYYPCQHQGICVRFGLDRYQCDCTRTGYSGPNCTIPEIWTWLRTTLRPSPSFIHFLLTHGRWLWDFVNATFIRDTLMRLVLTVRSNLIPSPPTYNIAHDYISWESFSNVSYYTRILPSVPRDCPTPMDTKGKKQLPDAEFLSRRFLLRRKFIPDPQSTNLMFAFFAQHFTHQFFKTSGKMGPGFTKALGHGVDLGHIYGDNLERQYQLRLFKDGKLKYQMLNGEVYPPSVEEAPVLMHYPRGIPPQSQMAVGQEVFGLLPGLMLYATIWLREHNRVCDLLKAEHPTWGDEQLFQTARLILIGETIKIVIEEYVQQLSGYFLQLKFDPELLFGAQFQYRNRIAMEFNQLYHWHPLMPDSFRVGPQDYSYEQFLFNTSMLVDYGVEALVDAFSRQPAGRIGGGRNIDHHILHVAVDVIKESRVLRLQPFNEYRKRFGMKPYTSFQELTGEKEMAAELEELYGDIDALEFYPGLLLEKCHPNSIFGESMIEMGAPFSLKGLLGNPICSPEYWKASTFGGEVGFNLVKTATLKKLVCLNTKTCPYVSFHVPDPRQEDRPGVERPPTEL
Assay: LCMS-based COX-1 enzymatic inhibition assay (PGE2 quantification)
Format: biochemical
Settings: 10 minutes; pge2 area (counts); head of this section not shown, inferred; read-out: COX1 10 minutes pge2 area (counts) Avg. IC50
pIC50: −log10 of the molar value.
Measured metric: pIC50

> print(dat)
                           smiles.structure  measured.metric  observed
1  CS(=O)(=O)c1ccc(-c2cccc(NCc3ccc[nH]3)n2)cc1            pIC50      4.77
2  COc1ncc(-c2ccc(S(N)(=O)=O)cc2)nc1NCc1cccs1            pIC50      5.32
3  CS(=O)(=O)c1ccc(-c2cnc3ccn(Cc4ccco4)c3n2)cc1            pIC50      4.75
4  CS(=O)(=O)c1ccc(-c2cncc(NCc3ccc(F)cc3)n2)cc1            pIC50      4.41
5          CSc1ccc(-c2cncc(OCc3cccs3)n2)cc1            pIC50      4.71
6          CSc1ccc(-c2cncc(NCc3cccs3)n2)cc1            pIC50      5.75
7  CS(=O)(=O)c1ccc(-n2ccc3ccc(NCc4cccs4)nc32)cc1            pIC50      4.30
8  CS(=O)(=O)c1ccc(-c2cccc(NCc3ccns3)n2)cc1            pIC50      4.30
9  CS(=O)(=O)c1ccc(-c2cnc3cnn(Cc4cccs4)c3n2)cc1            pIC50      4.97

###

Test: human plasma protein binding (PPB) assay
Assay type: in vitro ADME
Conditions: average, read-out: Human Plasma Protein Binding % Bound Avg (converted)
Short version: fraction unbound at least 0.02 is Met, less is Not met.

> print(dat)
                                   compound      cat
1  CS(=O)(=O)c1ccc(-c2cccc(OCc3ccoc3)n2)cc1 [Compound 16]      Met
2  CS(=O)(=O)c1ccc(-c2ccc(F)c(NCc3ccoc3)n2)cc1 [Compound 33]      Met
3  CS(=O)(=O)c1ccc(-c2cccc(NCc3ccc(F)o3)n2)cc1 [Compound 23]      Met
4  CS(=O)(=O)c1ccc(-c2cccc(OCc3ccsc3)n2)cc1 [Compound 9]  Not met
5  COc1ccc(NCc2cccs2)nc1-c1ccc(S(C)(=O)=O)cc1 [Compound 17]      Met
6  CS(=O)(=O)c1ccc(-c2ccc(F)c(NCc3ccco3)n2)cc1 [Compound 15]      Met
7  CS(=O)(=O)c1ccc(-c2cncc(OCc3cccs3)n2)cc1 [Compound 19]  Not met
8  CS(=O)(=O)c1ccc(-c2cccc(NCc3cccs3)n2)cc1 [Compound 24]  Not met

###

Measured efflux ratio accompanies every entry in the list below.
System: MDR1
Test: MDR1-MDCKII permeability and efflux
Format: in vitro ADME
Details: dog, MDCK-MDR1
Measured metric: efflux ratio

> print(dat)
                           smiles.structure  observed
1  CS(=O)(=O)c1ccc(-c2cccc(NCc3ccoc3)n2)cc1       0.9
2  CS(=O)(=O)c1ccc(-c2cccc(OCc3cccs3)n2)cc1       0.9
3  CS(=O)(=O)c1ccc(-c2cccc(NCc3ccco3)n2)cc1         1
4  CS(=O)(=O)c1ccc(-c2cncc(NCc3cccs3)n2)cc1       1.7
5  CS(=O)(=O)c1ccc(-c2cnc3ccn(Cc4cccs4)c3n2)cc1         1
6  COc1ncc(NCc2ccoc2)nc1-c1ccc(S(C)(=O)=O)cc1       1.2

###

Molecular target: human recombinant COX2 (hCOX2) (UniProt P35354)
Assay: LCMS-based COX2 enzymatic inhibition assay (PGE2 quantification)
Format: biochemical
Design: COX2 2 minutes pge2/pge2d4 area ratio Avg; other: 2 minutes; readout pge2/pge2d4 area ratio; average; COX2 2 minutes pge2/pge2d4 area ratio Avg; LLE; average LLE; COX2 2 minutes pge2 area (counts) Avg; readout pge2 area (counts); other: 2 min; "ovine COX2 (oCOX2), human recombinant COX2 (hCOX2)"
Conditions: 2 minutes; readout pge2 area (counts); average; read-out: COX2 2 minutes pge2 area (counts) Avg. IC50
pIC50: −log10 of the molar value.
Short version: pIC50 at least 7 is true, less is false.

> print(dat)
                                    compound    cat
 1  CS(=O)(=O)c1ccc(-c2cncc(SC[C@H]3CCCO3)n2)cc1 (single isomer, unassigned)  false
 2  CS(=O)(=O)c1ccc(-c2cncc(NCc3ccccc3)n2)cc1   true
 3  CS(=O)(=O)c1ccc(-c2cncc(SCc3ccno3)n2)cc1  false
 4  Cc1ncc(-c2ccc(S(C)(=O)=O)cc2)nc1NCc1cccs1  false
 5  CS(=O)(=O)c1ccc(-c2cncc(OCc3ccc(Cl)s3)n2)cc1   true
 6  CS(=O)(=O)c1ccc(-c2ccc3ccn(-c4ccccc4)c3n2)cc1  false
 7  CS(=O)(=O)c1ccc(-c2cccc(OCc3ccoc3)n2)cc1   true
 8  CS(=O)(=O)c1ccc(-c2cccc(NCc3ccco3)n2)cn1  false
 9  CS(=O)(=O)c1ccc(-c2cncc(NCc3ccno3)n2)cc1  false
10  CS(=O)(=O)c1ccc(-c2cnc(C(N)=O)c(NCc3cccs3)n2)cc1  false
11  COc1ncc(-c2ccc(S(C)(=O)=O)cc2)nc1NCc1ccncc1  false
12  CS(=O)(=O)c1ccc(-c2cccc(NCc3cc[nH]c3)n2)cc1  false
13  CS(=O)(=O)c1ccc(-c2cccc(OCc3ccco3)n2)cc1   true
14  CS(=O)(=O)c1ccc(-c2cncc(SCc3ncco3)n2)cc1  false
15  COc1ncc(OCc2ccco2)nc1-c1ccc(S(C)(=O)=O)cc1   true
16  CS(=O)(=O)c1ccc(-c2cncc(OC[C@H]3CCCS3)n2)cc1 (single isomer, unassigned)  false
17  CS(=O)(=O)c1ccc(-c2cncc(NCc3ncco3)n2)cc1  false
18  CS(=O)(=O)c1ccc(-c2cnnc(OCc3ccco3)c2)cc1  false
19  CS(=O)(=O)c1ccc(-c2cccc(OCc3ccc(Cl)s3)n2)cc1   true
20  CS(=O)(=O)c1ccc(-c2cncc(OCc3ccco3)n2)cc1  false
21  CS(=O)(=O)c1ccc(-c2cncc(NCc3ccco3)c2)cc1  false
22  C[C@@H](Nc1cncc(-c2ccc(S(C)(=O)=O)cc2)n1)c1cccs1  false
23  COc1cc(S(C)(=O)=O)ccc1-c1cncc(NCc2cccs2)n1  false
24  CS(=O)(=O)c1ccc(-c2cncc(SCc3cnco3)n2)cc1  false
25  CS(=O)(=O)c1ccc(-c2cncc(OCc3cncs3)n2)cc1  false
26  CS(=O)(=O)c1ccc(-c2cc(NCc3ccco3)ccn2)cc1  false
27  CS(=O)(=O)c1ccc(-c2cncc(NC(=O)c3cccs3)n2)cc1  false
28  CS(=O)(=O)c1ccc(-c2cccc([C@@H](O)Cc3cccs3)n2)cc1  false
29  CS(=O)(=O)c1ccc(-c2nc(NCc3cccs3)cnc2C#N)cc1  false
30  Cc1cc(CNc2cccc(-c3ccc(S(C)(=O)=O)cc3)n2)co1   true
31  COc1ncc(OCc2ccoc2)nc1-c1ccc(S(C)(=O)=O)cc1   true
32  CS(=O)(=O)c1ccc(-n2ccc3ccc(NCc4ccco4)nc32)cc1  false

###

Target: human recombinant COX2 (hCOX2) (UniProt P35354)
Sequence (P35354 1-604): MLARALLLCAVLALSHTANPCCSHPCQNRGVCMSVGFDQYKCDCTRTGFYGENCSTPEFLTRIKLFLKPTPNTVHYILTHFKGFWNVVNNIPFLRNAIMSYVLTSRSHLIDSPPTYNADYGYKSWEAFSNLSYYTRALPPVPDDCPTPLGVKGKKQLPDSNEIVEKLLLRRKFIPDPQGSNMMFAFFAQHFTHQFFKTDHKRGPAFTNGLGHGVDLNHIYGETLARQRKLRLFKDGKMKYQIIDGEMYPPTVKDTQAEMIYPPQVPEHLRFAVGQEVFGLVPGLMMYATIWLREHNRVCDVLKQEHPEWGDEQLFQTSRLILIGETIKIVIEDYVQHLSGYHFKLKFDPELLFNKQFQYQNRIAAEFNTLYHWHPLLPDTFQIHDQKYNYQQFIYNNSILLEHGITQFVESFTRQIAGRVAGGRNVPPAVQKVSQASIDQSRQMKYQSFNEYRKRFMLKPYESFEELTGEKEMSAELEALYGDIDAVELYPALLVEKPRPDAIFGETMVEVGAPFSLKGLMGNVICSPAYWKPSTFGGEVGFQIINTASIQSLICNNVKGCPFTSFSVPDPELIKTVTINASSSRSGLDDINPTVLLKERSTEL
Test: LCMS-based COX2 enzymatic inhibition assay (PGE2 quantification)
Assay type: biochemical
Design: COX2 2 minutes pge2/pge2d4 area ratio Avg; other: 2 minutes; readout pge2/pge2d4 area ratio; average; COX2 2 minutes pge2/pge2d4 area ratio Avg; LLE; average LLE; COX2 2 minutes pge2 area (counts) Avg; readout pge2 area (counts); other: 2 min; "ovine COX2 (oCOX2), human recombinant COX2 (hCOX2)"
Settings: 2 minutes; readout pge2/pge2d4 area ratio; average; read-out: COX2 2 minutes pge2/pge2d4 area ratio Avg. IC50
pIC50: −log10 of the molar value.
Short version: pIC50 at least 7 is true, less is false.

> print(dat)
                                    compound                        measurement.target    cat
 1  CO/N=C(/c1ccc2ccn(-c3ccc(S(C)(=O)=O)cc3)c2n1)c1cccs1 [Compound 214]  human recombinant COX2 (hCOX2) (UniProt P35354)  false
 2  CO/N=C(\c1ccc2ccn(-c3ccc(S(C)(=O)=O)cc3)c2n1)c1cccs1 [Compound 191]  human recombinant COX2 (hCOX2) (UniProt P35354)  false
 3  C[C@@H](Oc1cncc(-c2ccc(S(C)(=O)=O)cc2)n1)c1cccs1 (single isomer, unassigned) [Compound 249]  human recombinant COX2 (hCOX2) (UniProt P35354)  false
 4  Cn1ccc(CNc2cccc(-c3ccc(S(C)(=O)=O)cc3)n2)n1 [Compound 188]  human recombinant COX2 (hCOX2) (UniProt P35354)  false
 5  CS(=O)(=O)c1ccc(-c2cccc(NCc3cnoc3)n2)cc1 [Compound 136]  human recombinant COX2 (hCOX2) (UniProt P35354)  false
 6  CS(=O)(=O)c1ccc(-c2cccc(NCc3ncco3)n2)cc1 [Compound 231]  human recombinant COX2 (hCOX2) (UniProt P35354)  false
 7  CS(=O)(=O)c1ccc(-c2cncc(Oc3ccc(F)cc3)n2)cc1 [Compound 211]  human recombinant COX2 (hCOX2) (UniProt P35354)  false
 8  CS(=O)(=O)c1ccc(-n2ccc3ccc([C@H](O)c4cccs4)nc32)cc1 (single isomer, unassigned) [Compound 168]  human recombinant COX2 (hCOX2) (UniProt P35354)  false
 9  Cc1csc(COc2cncc(-c3ccc(S(C)(=O)=O)cc3)n2)c1 [Compound 10]  human recombinant COX2 (hCOX2) (UniProt P35354)   true
10  CS(=O)(=O)c1ccc(-c2cncc(OCc3ccc(Cl)o3)n2)cc1 [Compound 212]  human recombinant COX2 (hCOX2) (UniProt P35354)  false
11  CS(=O)(=O)c1ccc(-c2cccc(OCc3cccs3)n2)cc1 [Compound 1]  human recombinant COX2 (hCOX2) (UniProt P35354)   true
12  COc1ncc(-c2ccc(S(N)(=O)=O)cc2)nc1NCc1cccs1 [Compound 64]  human recombinant COX2 (hCOX2) (UniProt P35354)   true
13  COc1ncc(NCc2ccon2)nc1-c1ccc(S(C)(=O)=O)cc1 [Compound 152]  human recombinant COX2 (hCOX2) (UniProt P35354)  false
14  CS(=O)(=O)c1ccc(-c2cnc3cnn(Cc4cccs4)c3c2)cc1 [Compound 244]  human recombinant COX2 (hCOX2) (UniProt P35354)  false
15  CS(=O)(=O)c1ccc(-c2cncc(SCc3cocn3)n2)cc1 [Compound 258]  human recombinant COX2 (hCOX2) (UniProt P35354)  false
16  CS(=O)(=O)c1ccc(-c2ncc3ncn(Cc4cccs4)c3n2)cc1 [Compound 164]  human recombinant COX2 (hCOX2) (UniProt P35354)  false
17  CS(=O)(=O)c1ccc(-c2cncc(NCc3cccs3)c2)cc1 [Compound 79]  human recombinant COX2 (hCOX2) (UniProt P35354)   true
18  CS(=O)(=O)c1ccc(-n2ccc3ccc(C(=O)c4cccs4)nc32)cc1 [Compound 151]  human recombinant COX2 (hCOX2) (UniProt P35354)  false
19  CS(=O)(=O)c1ccc(-c2cncc(SC[C@H]3CCCO3)n2)cc1 (single isomer, unassigned) [Compound 154]  human recombinant COX2 (hCOX2) (UniProt P35354)  false
20  COCCOc1ncc(NCc2cccs2)nc1-c1ccc(S(C)(=O)=O)cc1 [Compound 133]  human recombinant COX2 (hCOX2) (UniProt P35354)  false
21  CS(=O)(=O)c1ccc(-c2cc(NCc3ccco3)ncn2)cc1 [Compound 277]  human recombinant COX2 (hCOX2) (UniProt P35354)  false
22  CS(=O)(=O)c1ccc(-c2ccc3ccn(-c4ccccc4)c3n2)cc1 [Compound 146]  human recombinant COX2 (hCOX2) (UniProt P35354)  false
23  CS(=O)(=O)c1ccc(-c2cncc(N3CCCCC3)n2)cc1 [Compound 262]  human recombinant COX2 (hCOX2) (UniProt P35354)  false
24  CS(=O)(=O)c1ccc(-c2coc3ccc(NCc4ccco4)nc23)cc1 [Compound 68]  human recombinant COX2 (hCOX2) (UniProt P35354)   true
25  CS(=O)(=O)c1ccc(-c2cncc(NC34CC5CC(CC(C5)C3)C4)n2)cc1 [Compound 240]  human recombinant COX2 (hCOX2) (UniProt P35354)  false
